These entries and their values trace back to patent US20260317324A1.

Target: BRAF G469A (Homo sapiens, UniProt P15056, G469A)
Construct: Horizon Discovery (HCT-116 BRAF−/− cells); host or cells: HCT-116 BRAF−/− cells, clone 34, lentiviral transduction
Sequence (P15056 whole entry G469A): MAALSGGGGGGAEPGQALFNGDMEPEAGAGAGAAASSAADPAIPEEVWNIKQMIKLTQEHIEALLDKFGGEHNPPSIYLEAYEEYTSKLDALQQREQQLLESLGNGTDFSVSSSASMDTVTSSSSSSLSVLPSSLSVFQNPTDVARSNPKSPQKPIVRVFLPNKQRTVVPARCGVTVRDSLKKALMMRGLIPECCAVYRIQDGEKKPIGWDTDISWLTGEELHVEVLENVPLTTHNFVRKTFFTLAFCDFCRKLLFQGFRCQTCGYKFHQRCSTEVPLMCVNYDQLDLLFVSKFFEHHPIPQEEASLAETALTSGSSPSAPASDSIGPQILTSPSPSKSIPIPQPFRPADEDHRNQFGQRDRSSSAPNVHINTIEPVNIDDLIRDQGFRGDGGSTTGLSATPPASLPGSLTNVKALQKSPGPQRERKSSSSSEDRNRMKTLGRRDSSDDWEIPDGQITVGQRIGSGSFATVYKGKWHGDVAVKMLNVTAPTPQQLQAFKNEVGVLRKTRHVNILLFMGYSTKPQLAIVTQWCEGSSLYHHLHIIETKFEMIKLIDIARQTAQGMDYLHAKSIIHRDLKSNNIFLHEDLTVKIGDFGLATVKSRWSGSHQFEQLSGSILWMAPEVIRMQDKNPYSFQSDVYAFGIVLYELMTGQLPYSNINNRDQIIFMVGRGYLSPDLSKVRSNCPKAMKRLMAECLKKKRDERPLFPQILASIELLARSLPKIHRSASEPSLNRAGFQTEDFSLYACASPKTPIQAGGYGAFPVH
Experiment: BRAF HiBiT degradation assay, C-terminal HiBiT-tagged BRAF G469A overexpressed in HCT-116 BRAF−/− cells (clone 34), Nano-Glo HiBiT Lytic assay
Format: cell-based
Conditions: BRAF G469A (Class 2), HCT-116 BRAF−/− cells; observed Dmax relative to DMSO control
measurement.name: Dmax

{"molecule": "O=C1CCC(c2ccc(N3CCC(CN4CCN(c5ccc(-n6cc(-c7cc(Cl)cc(NS(=O)(=O)N8CCCC8)c7F)c(-c7ccncc7)n6)cc5)CC4)CC3)cc2F)C(=O)N1 (racemic)", "test.target": "BRAF G469A (Homo sapiens, UniProt P15056, G469A)", "Dmax": "30 to 70%"}
{"molecule": "C[C@@H]1CN(c2ccc(-n3cc(-c4cc(Cl)cc(NS(=O)(=O)N5CC[C@@H](F)C5)c4F)c(-c4ccncc4)n3)cc2)CCN1CC1CCN(c2ccc(N3CCC(=O)NC3=O)cc2)CC1", "test.target": "BRAF G469A (Homo sapiens, UniProt P15056, G469A)", "Dmax": "30 to 70%"}
{"molecule": "CCCS(=O)(=O)Nc1cc(Cl)cc(-c2cn(-c3ccc(N4CCN(CC5CCN(c6ccc(N7CCC(=O)NC7=O)cc6)CC5)[C@H](C)C4)cc3)nc2-c2ccncc2)c1F", "test.target": "BRAF G469A (Homo sapiens, UniProt P15056, G469A)", "Dmax": "30 to 70%"}
{"molecule": "O=C1CC[C@H](c2ccc(N3CCC(CN4CCN(c5cc(F)c(-n6cc(-c7cc(Cl)cc(NS(=O)(=O)N8CCCC8)c7F)c(-c7ccncc7)n6)cc5F)CC4)CC3)cc2)C(=O)N1", "test.target": "BRAF G469A (Homo sapiens, UniProt P15056, G469A)", "Dmax": "> 70%"}

Q. State its Dmax: CCCS(=O)(=O)Nc1cccc(-c2nc(C3CCC4(CC3)CCN(C(=O)C3CCN(c5ccc(C(=O)NC6CCC(=O)NC6=O)nc5)CC3)CC4)sc2-c2ccnc(N)n2)c1F (racemic)
A. < 30%
